- ASSAYED_SYSTEM: Mitogen-activated protein kinase 3 (Homo sapiens);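 note: values are mean percent inhibition of MAPK3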
- ASSAY_CONTEXT: at 1 µM

# COMPOUND, inhibition (%)
records = [
    ("CN1CCC(C(=O)Nc2n[nH]c3nnc(-c4ccccc4)cc23)CC1", 7.39),
    ("CCn1c(-c2nonc2N)nc2ccncc21", 1.29),
    ("CC1=C(C(=O)Nc2ccc3[nH]ncc3c2)C(c2ccc(F)cc2)NC(=O)N1 (centres undefined)", 3.56),
    ("O=C1NC(=O)C(c2cccc(Cl)c2)=C1Nc1ccc(O)c(Cl)c1", 2.28),
]

* * *

- ASSAYED_SYSTEM: Protein kinase C alpha type (Homo sapiens) (UniProt P17252);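 note: each value is the mean percent inhibition of PKC-alpha kinase activity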
- ASSAY_CONTEXT: at 0.1 µM
PROPERTY_MEASURED: inhibition (%)

# COMPOUND, REPORTED_MEASUREMENT
measured = [
    ("c1cnn2ncc(-c3ccnc(Nc4ccc5c(c4)OCCO5)n3)c2c1", 2.47),
    ("COc1ccc(-c2nn3ncccc3c2-c2ccnc(Nc3ccc(Cl)c(C(F)(F)F)c3)n2)cc1", 0.22),
    ("O=C1NC(=O)C(N2CCc3ccccc32)=C1c1ccc(Cl)cc1", 0.86),
    ("Cc1cccc(-c2n[nH]cc2-c2ccc3ncccc3n2)n1", 0.19),
    ("COc1cc2ncn(-c3cc(OCc4ccccc4C(F)(F)F)c(C(N)=O)s3)c2cc1OC", -3.16),
    ("CS(=O)(=O)Nc1ccc(N/C=C2\\C(=O)Nc3ccccc32)cc1", -0.53),
    ("Cc1ccc(NC(=O)c2ccnc(N3CCCC3)c2)cc1-c1ccc(C(=O)NCC2CC2)cc1", -2.31),
    ("Cc1ccc(C(=O)NC2CCCCC2)cc1-c1ccc(C(=O)NCC2CC2)cc1", 0.96),
    ("COc1ccc2cc(-c3c(-c4ccncc4)nc(-c4ccc([S+](C)[O-])cc4)n3C)ccc2c1 (configuration not stated)", 0.25),
    ("COC(=O)Nc1nc2cc(Oc3ccc(NC(=O)Nc4cccc(C(=O)O)c4)cc3)ccc2[nH]1", -3.01),
    ("CS(=O)(=O)CCNCc1ccc(-c2ccc3ncnc(Nc4ccc(OCc5ccccc5)c(Cl)c4)c3c2)o1", 0.09),
    ("Fc1cccc(COc2ccc(Nc3ncnc4cc(-c5ccc[nH]5)sc34)cc2Cl)c1", -3.29),
    ("COc1cc2ncn(-c3cc(O[C@H](C)c4ccccc4Cl)c(C(N)=O)s3)c2cc1OC", -0.04),
    ("Nc1nc(-c2ccccn2)c(-c2ccc3ncccc3n2)s1", 1.07),
    ("O=C1NC(=O)C(c2cccc(Cl)c2)=C1Nc1ccc(O)c(Cl)c1", 3.2),
    ("CCCN1CCC=C(c2ccc(Nc3nc(Nc4ccccc4C(N)=O)c4cc[nH]c4n3)c(C)c2)C1", 0.33),
    ("Nc1ncnc2occ(-c3ccc(NC(=O)Nc4cccc(C(F)(F)F)c4)cc3)c12", 0.88),
]

* * *

- ASSAYED_SYSTEM: Sphingosine kinase 2 (Homo sapiens) (UniProt Q9NRA0)
- Sequence (whole entry): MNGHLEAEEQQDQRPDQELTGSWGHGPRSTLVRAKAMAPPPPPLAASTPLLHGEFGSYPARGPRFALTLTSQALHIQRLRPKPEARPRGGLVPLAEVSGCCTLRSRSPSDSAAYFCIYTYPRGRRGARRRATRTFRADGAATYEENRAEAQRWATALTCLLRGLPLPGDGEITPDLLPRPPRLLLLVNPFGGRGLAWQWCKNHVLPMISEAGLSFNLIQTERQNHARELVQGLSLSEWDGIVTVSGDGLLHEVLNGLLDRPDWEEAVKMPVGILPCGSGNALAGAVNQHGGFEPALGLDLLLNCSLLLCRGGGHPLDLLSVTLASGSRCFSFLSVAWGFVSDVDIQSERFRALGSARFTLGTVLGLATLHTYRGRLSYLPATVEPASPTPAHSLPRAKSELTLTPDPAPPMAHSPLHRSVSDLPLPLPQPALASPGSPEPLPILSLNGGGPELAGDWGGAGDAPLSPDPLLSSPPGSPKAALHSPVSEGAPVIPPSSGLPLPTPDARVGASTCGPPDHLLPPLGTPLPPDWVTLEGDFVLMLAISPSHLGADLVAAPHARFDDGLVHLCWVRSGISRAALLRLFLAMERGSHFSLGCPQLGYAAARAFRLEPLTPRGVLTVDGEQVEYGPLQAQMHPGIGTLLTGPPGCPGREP
- ASSAY_CONTEXT: at 1 µM
- Description: GSK_PKIS: SPHK2 mean inhibition at 1 uM [Nanosyn]
Reported values of inhibition for individual entries

# COMPOUND, ASSAYED_SYSTEM, inhibition (%)
measured = [
    ("CCn1c(-c2nonc2N)nc2c(C#CC(C)(C)O)nc(OC[C@@H](N)c3ccccc3)cc21", "Sphingosine kinase 2 (Homo sapiens) (UniProt Q9NRA0)", -2.35),
    ("CC1=C(C(=O)Nc2ccc3[nH]ncc3c2)C(c2ccc(Cl)c(Cl)c2)CC(=O)N1 (stereo not drawn)", "Sphingosine kinase 2 (Homo sapiens) (UniProt Q9NRA0)", -1.45),
    ("COc1cc2c(cc1Nc1nc(N3CCc4ccccc43)c3cc[nH]c3n1)N(C(=O)CN(C)C)CC2", "Sphingosine kinase 2 (Homo sapiens) (UniProt Q9NRA0)", 0.81),
    ("COc1cc2ncn(-c3cc(O[C@@H](C)c4ccccc4Cl)c(C(N)=O)s3)c2cc1OC", "Sphingosine kinase 2 (Homo sapiens) (UniProt Q9NRA0)", 0),
    ("CCn1c(-c2nonc2N)nc2cncc(C(=O)N3CC[C@H](N)C3)c21", "Sphingosine kinase 2 (Homo sapiens) (UniProt Q9NRA0)", -0.8),
    ("Nc1ncnc2occ(-c3ccc(NC(=O)Nc4cc(C(F)(F)F)cc(C(F)(F)F)c4)cc3)c12", "Sphingosine kinase 2 (Homo sapiens) (UniProt Q9NRA0)", -0.25),
    ("CN1CCC(C(=O)Nc2n[nH]c3nnc(-c4ccccc4)cc23)CC1", "Sphingosine kinase 2 (Homo sapiens) (UniProt Q9NRA0)", -2.16),
    ("COC(=O)Nc1nc2cc(Oc3ccc(NC(=O)Nc4cccc(C(=O)O)c4)cc3)ccc2[nH]1", "Sphingosine kinase 2 (Homo sapiens) (UniProt Q9NRA0)", -0.25),
    ("CCn1c(-c2nonc2N)nc2c(C#CC(C)(C)O)nc(CN3CCCC3)cc21", "Sphingosine kinase 2 (Homo sapiens) (UniProt Q9NRA0)", 1.13),
    ("Cc1cccc(-c2n[nH]cc2-c2ccc3ncccc3n2)n1", "Sphingosine kinase 2 (Homo sapiens) (UniProt Q9NRA0)", 0.2),
    ("Nc1ncnc2occ(-c3ccc(NC(=O)Nc4cccc(C(F)(F)F)c4)cc3)c12", "Sphingosine kinase 2 (Homo sapiens) (UniProt Q9NRA0)", 1.95),
    ("CCCN1CCC(Oc2cc(Nc3nc(Nc4cccc(F)c4C(N)=O)c4cc[nH]c4n3)c(OC)cc2Cl)CC1", "Sphingosine kinase 2 (Homo sapiens) (UniProt Q9NRA0)", 0.09),
    ("O=C1NC(=O)C(N2CCc3ccccc32)=C1c1ccc(Cl)cc1", "Sphingosine kinase 2 (Homo sapiens) (UniProt Q9NRA0)", 0.87),
    ("CCc1cccc(NC(=O)Nc2ccc(Oc3ccc4nc(NC(=O)OC)[nH]c4c3)cc2)c1", "Sphingosine kinase 2 (Homo sapiens) (UniProt Q9NRA0)", -2.51),
    ("CC(=O)Nc1cccc(C#Cc2cncnc2Nc2ccc(OCc3cccc(F)c3)c(Cl)c2)n1", "Sphingosine kinase 2 (Homo sapiens) (UniProt Q9NRA0)", -0.13),
    ("Nc1nc(-c2ccccn2)c(-c2ccc3ncccc3n2)s1", "Sphingosine kinase 2 (Homo sapiens) (UniProt Q9NRA0)", -3.19),
    ("O=C1NC(=O)C(c2cccc(Cl)c2)=C1Nc1ccc(O)c(Cl)c1", "Sphingosine kinase 2 (Homo sapiens) (UniProt Q9NRA0)", -0.07),
    ("O=C1Nc2ccc(C(=O)c3ccco3)cc2C1=Cc1cc(Cl)c(O)c(Cl)c1", "Sphingosine kinase 2 (Homo sapiens) (UniProt Q9NRA0)", 1.2),
]

* * *

Each entry below carries its reported inhibition.
- ASSAYED_SYSTEM: Macrophage colony-stimulating factor 1 receptor (Homo sapiens) (UniProt P07333);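 note: mean inhibition of FMS, from the GSK PKIS screening set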
- Sequence (P07333 whole entry): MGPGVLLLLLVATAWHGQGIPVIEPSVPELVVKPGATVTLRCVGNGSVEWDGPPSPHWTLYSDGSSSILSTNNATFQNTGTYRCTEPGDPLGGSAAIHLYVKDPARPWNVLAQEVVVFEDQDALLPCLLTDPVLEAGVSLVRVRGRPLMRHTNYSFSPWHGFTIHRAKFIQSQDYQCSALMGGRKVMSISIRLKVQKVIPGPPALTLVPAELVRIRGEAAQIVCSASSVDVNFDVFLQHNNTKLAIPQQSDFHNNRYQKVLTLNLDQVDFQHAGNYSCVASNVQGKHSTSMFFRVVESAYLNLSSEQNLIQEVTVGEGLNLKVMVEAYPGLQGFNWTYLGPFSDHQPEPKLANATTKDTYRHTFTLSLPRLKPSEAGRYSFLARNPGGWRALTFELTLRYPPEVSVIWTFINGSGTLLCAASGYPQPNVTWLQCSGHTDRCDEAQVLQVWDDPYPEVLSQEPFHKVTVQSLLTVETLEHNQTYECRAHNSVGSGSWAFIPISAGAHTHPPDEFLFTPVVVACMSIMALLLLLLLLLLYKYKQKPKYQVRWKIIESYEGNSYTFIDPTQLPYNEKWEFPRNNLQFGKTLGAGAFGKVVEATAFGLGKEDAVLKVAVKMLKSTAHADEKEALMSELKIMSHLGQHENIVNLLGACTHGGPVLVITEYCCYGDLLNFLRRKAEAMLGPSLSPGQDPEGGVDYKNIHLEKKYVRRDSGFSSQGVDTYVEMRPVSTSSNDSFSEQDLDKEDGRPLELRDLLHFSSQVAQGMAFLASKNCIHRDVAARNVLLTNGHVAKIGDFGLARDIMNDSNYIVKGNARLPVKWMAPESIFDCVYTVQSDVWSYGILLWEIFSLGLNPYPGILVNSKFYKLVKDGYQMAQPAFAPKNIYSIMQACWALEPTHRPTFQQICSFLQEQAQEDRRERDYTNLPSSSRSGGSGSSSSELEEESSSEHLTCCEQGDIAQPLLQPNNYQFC
- ASSAY_CONTEXT: at 1 µM

# CHEM_SMILES, inhibition
measured = [
    ("O=C1NC(=O)C(c2ccccc2Cl)=C1Nc1cccc(O)c1", "2.71%"),
    ("NC(=O)c1ccc(-c2nc(-c3ccccn3)c(-c3ccc4c(c3)OCO4)[nH]2)cc1", "2.49%"),
    ("COc1cc2c(cc1Nc1nc(N3CCc4ccccc43)c3cc[nH]c3n1)N(C(=O)CN(C)C)CC2", "2.14%"),
    ("Fc1cccc(COc2ccc(Nc3ncnc4sc(-c5cccs5)cc34)cc2Cl)c1", "11.2%"),
]

* * *

- ASSAYED_SYSTEM: Ribosomal protein S6 kinase beta-1 (Homo sapiens) (UniProt P23443);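 note: reported value is the mean inhibition of p70S6K1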
- Sequence (P23443 whole entry, looked up): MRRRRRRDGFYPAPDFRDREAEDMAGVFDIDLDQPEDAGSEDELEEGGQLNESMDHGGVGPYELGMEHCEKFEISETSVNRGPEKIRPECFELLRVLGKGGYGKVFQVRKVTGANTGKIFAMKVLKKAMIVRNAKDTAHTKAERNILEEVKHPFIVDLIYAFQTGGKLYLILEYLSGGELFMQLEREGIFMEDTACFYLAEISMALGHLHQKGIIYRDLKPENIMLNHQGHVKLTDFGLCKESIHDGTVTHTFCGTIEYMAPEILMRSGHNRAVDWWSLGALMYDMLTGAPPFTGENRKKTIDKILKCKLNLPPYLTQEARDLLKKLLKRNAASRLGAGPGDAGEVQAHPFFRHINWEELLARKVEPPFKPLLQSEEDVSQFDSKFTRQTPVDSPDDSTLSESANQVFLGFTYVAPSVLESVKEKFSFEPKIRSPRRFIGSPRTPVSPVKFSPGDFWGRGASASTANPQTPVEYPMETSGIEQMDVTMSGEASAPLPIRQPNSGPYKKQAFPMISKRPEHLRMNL
- ASSAY_CONTEXT: at 0.1 µM
Catalogue of molecules with associated inhibition
PROPERTY_MEASURED: inhibition (%)

# MOLECULE, ASSAYED_SYSTEM, UNITS_LABEL, REPORTED_MEASUREMENT
measured = [
    ("CCN1CCC(CC(=O)Nc2n[nH]c3nc(-c4cccs4)c(Br)cc23)CC1", "Ribosomal protein S6 kinase beta-1 (Homo sapiens) (UniProt P23443)", "%", -1.91),
    ("Nc1nc(-c2ccccn2)c(-c2ccc3ncccc3n2)s1", "Ribosomal protein S6 kinase beta-1 (Homo sapiens) (UniProt P23443)", "%", 0.7),
    ("Cc1ccc(C(=O)NC2CCCCC2)cc1-c1ccc(C(=O)NCC2CC2)cc1", "Ribosomal protein S6 kinase beta-1 (Homo sapiens) (UniProt P23443)", "%", -0.26),
    ("CCCN1CCC=C(c2ccc(Nc3nc(Nc4ccccc4C(N)=O)c4cc[nH]c4n3)c(C)c2)C1", "Ribosomal protein S6 kinase beta-1 (Homo sapiens) (UniProt P23443)", "%", 0.98),
    ("Fc1cccc(COc2ccc(Nc3ncnc4sc(-c5cccs5)cc34)cc2Cl)c1", "Ribosomal protein S6 kinase beta-1 (Homo sapiens) (UniProt P23443)", "%", -0.02),
    ("COc1ccc(COc2ccc(Cc3cnc(N)nc3N)cc2OC)cc1", "Ribosomal protein S6 kinase beta-1 (Homo sapiens) (UniProt P23443)", "%", 1.54),
    ("Cc1ccc(NC(=O)c2ccnc(N3CCCC3)c2)cc1-c1ccc(C(=O)NCC2CC2)cc1", "Ribosomal protein S6 kinase beta-1 (Homo sapiens) (UniProt P23443)", "%", 1.53),
    ("CCn1c(-c2nonc2N)nc2ccncc21", "Ribosomal protein S6 kinase beta-1 (Homo sapiens) (UniProt P23443)", "%", 1.28),
    ("CS(=O)(=O)CCNCc1ccc(-c2ccc3ncnc(Nc4ccc(OCc5ccccc5)c(Cl)c4)c3c2)o1", "Ribosomal protein S6 kinase beta-1 (Homo sapiens) (UniProt P23443)", "%", 0.22),
    ("CCn1c(-c2nonc2N)nc2c(C#CC(C)(C)O)nc(OC[C@@H](N)c3ccccc3)cc21", "Ribosomal protein S6 kinase beta-1 (Homo sapiens) (UniProt P23443)", "%", 5.44),
    ("CC1=C(C(=O)Nc2ccc3[nH]ncc3c2)C(c2ccc(Cl)c(Cl)c2)CC(=O)N1 (configuration not stated)", "Ribosomal protein S6 kinase beta-1 (Homo sapiens) (UniProt P23443)", "%", 3.83),
    ("COc1cc2ncn(-c3cc(O[C@@H](C)c4ccccc4Cl)c(C(N)=O)s3)c2cc1OC", "Ribosomal protein S6 kinase beta-1 (Homo sapiens) (UniProt P23443)", "%", 0.94),
    ("O=C1NC(=O)C(c2ccc(Cl)cc2)=C1Nc1ccc(Cl)c(C(=O)O)c1", "Ribosomal protein S6 kinase beta-1 (Homo sapiens) (UniProt P23443)", "%", -1.54),
    ("CCn1c(-c2nonc2N)nc2cncc(C(=O)N3CC[C@H](N)C3)c21", "Ribosomal protein S6 kinase beta-1 (Homo sapiens) (UniProt P23443)", "%", 32.9),
    ("NC(=O)c1ccc(-c2nc(-c3ccccn3)c(-c3ccc4c(c3)OCO4)[nH]2)cc1", "Ribosomal protein S6 kinase beta-1 (Homo sapiens) (UniProt P23443)", "%", 1.26),
    ("CCn1c(-c2nonc2N)nc2cnc(Oc3cccc(NC(=O)c4ccc(OCCN5CCOCC5)cc4)c3)cc21", "Ribosomal protein S6 kinase beta-1 (Homo sapiens) (UniProt P23443)", "%", 84.6),
    ("COc1cc2ncn(-c3cc(O[C@H](C)c4ccccc4Cl)c(C(N)=O)s3)c2cc1OC", "Ribosomal protein S6 kinase beta-1 (Homo sapiens) (UniProt P23443)", "%", 1.42),
]
